- testSystem: SpHof1
- protocolSummary: SPOT peptide array binding signal intensity (averaged, normalized) (arbitrary units (background-subtracted, floor 0; scale differs between SH3 domains)); higher = stronger binding of the SH3 domain to the peptide
reportedProperty: SPOT peptide array binding signal intensity

> print(dat)
             binder  relation  resultvalue
 1  IPSRPAPKPPSSASA         ≤            0
 2  PIVPSSPAPPLPLSG         ≤            0
 3  VYTRTAFQIPGDDKI         ≤            0
 4  QTREPNEPPPPSPAM         ≤            0
 5  LYEAMPPTLPHRDWK         =            2
 6  NFKRLLPRDPSEKSS         =          283
 7  FYHRPAPKPPVTKKV         =         12.5
 8  SSAAPPPPPRRATPE         =         10.2
 9  MSPLGAPPPPPHKDH         =            1
10  AVPPPPPPPPLPESL         ≤            0
11  SGVRLPAPPPPPRRG         =          248
12  RRTRLRPPTPLSQLL         =          406
13  PKRRAPPPVPKKPSS         =          165
14  KNRKNLPTIPIRLSG         =         1400
